tested system: T1, recombinant fibronectin domain ED-B (His)6 (human, UniProt P02751 1266-1356)
T1 construct: domain: ED-B; Produced by standard procedures; immobilised on ELISA plates or on the BIAcore chip; also called recombinant ED-B; human ED-B
experiment summary: SPR (BIAcore), ED-B immobilised on chip, Fab in flow
Measured Kd by item
observable: Kd (nM)

binder	observable	value observed
MOR03071 (Fab, V domains shown, Fab, L-CDR3 derivative of MOR02619) VH: QVQLQESGPGLVKPGETLSLTCTVSGGSISSYYWSWIRQAPGKGLEWIGIGHWGSTQYNPSLKGRVTISVDTSKNQFSLKLSSVTAEDTAVYYCARFFDVWGQGTLVTVSS VL: DIVLTQPPSVSGAPGQRVTISCSGSSSNIGSNTVRWYQQLPGTAPKLLIYSNNKRPSGVPDRFSGSKSGTSASLAITGLQSEDEADYYCLAYIQSKGHVFGGGTKLTVLG	Kd	3.1
MOR03062 (Fab, V domains shown, Fab, L-CDR3 derivative of MOR02715) VH: QVQLVESGGGLVQPGGSLRLSCAASGFTFSSYGMHWVRQAPGKGLEWVSVISSSGSYIYYADSVKGRFTISRDNSKNTLYLQMNSLRAEDTAVYYCARNKVGFDVWGQGTLVTVSS VL: DIALTQPASVSGSPGQSITISCTGTSSDGGGYNTVSWYQQHPGKAPKLMIYYVHKRPSGVSNRFSGSKSGNTASLTISGLQAEDEADYYCQSWDLSVHQVVFGGGTKLTVLG	Kd	3.4
MOR02619 (Fab, V domains shown, HuCAL GOLD Fab, VH4/L1) VH: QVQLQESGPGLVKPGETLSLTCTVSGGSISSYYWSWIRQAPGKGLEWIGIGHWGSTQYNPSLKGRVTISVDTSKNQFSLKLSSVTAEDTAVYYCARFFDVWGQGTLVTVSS VL: DIVLTQPPSVSGAPGQRVTISCSGSSSNIGSNTVRWYQQLPGTAPKLLIYSNNKRPSGVPDRFSGSKSGTSASLAITGLQSEDEADYYCQSWDGASTGVFGGGTKLTVLG	Kd	15.4
